Bliss excess values, listed per item
System: MCF7 (Breast Carcinoma);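 also: after 72 h of two-drug dosing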
method: Bliss excess, mean over the matrix (fraction); higher = more synergy

>>> experimental_value("Cn1cnc2c(F)c(Nc3ccc(Br)cc3Cl)c(C(=O)NOCCO)cc21 [Selumetinib] + C=CCn1c(=O)c2cnc(Nc3ccc(N4CCN(C)CC4)cc3)nc2n1-c1cccc(C(C)(C)O)n1 [AZD1775] (first compound max 10 µM, partner max 1 µM)")
-0.079

Now take the following molecule into account.
# Bliss excess lookup, item COc1nnc2ccc(N3CCC(c4ccc(OCCN5CCN(C)C(=O)[C@H]5C)cc4)CC3)nn12 [AZD5153] + Cc1c2c(nn1C)CSCc1cc(n(C)n1)CSc1cc(c3ccccc3c1)OCCCc1c(C(=O)O)n(C)c3c-2c(Cl)ccc13 [AZD5991] (first compound max 1 µM, 7x7, partner max 1 µM)
-0.0003
